Recorded IC50 for the following molecules
Measured target: Renin (Sus scrofa)
Test name: Compound was tested for inhibition of hog kidney renin
Recorded conditions: read-out: I50
Non-standard residues stand in square brackets, D forms with d. Residues, ends and D or L forms follow the SMILES beside them. *: point of attachment. Sta = CC(C)C[C@H](N)[C@@H](O)CC(=O)O; X1 = c1ccc(CN2CCC(N*)CC2)cc1; Boc = CC(C)(C)OC(=O)*
Number only, in nM; omit the unit.

Use the examples below as a reference point.
Molecule	Reported metric	Value
CC(C)C[C@H](NC(=O)C[C@H](O)[C@H](CC(C)C)NC(=O)[C@H](Cc1c[nH]cn1)NC(=O)[C@H](Cc1ccccc1)NC(=O)OC(C)(C)C)C(=O)NC1CCN(Cc2ccccc2)CC1 (Boc-FH[Sta]L-X1)	IC50	269
CC(C)C[C@H](NC(=O)C[C@H](O)[C@H](CC(C)C)NC(=O)[C@H](Cc1ccccc1)NC(=O)[C@H](Cc1ccccc1)NC(=O)OC(C)(C)C)C(=O)N[C@@H](Cc1ccccc1)C(N)=O (Boc-FF[Sta]LF-NH2)	IC50	88

Sample `CC(C)C[C@@H](CNCc1ccccc1)NC(=O)C[C@H](O)[C@H](CC(C)C)NC(=O)[C@H](Cc1ccccc1)NC(=O)[C@H](Cc1ccccc1)NC(=O)OC(C)(C)C` — what was its IC50?
858

###

Measured target: Renin (Homo sapiens, UniProt P00797)
Sequence (P00797 whole entry): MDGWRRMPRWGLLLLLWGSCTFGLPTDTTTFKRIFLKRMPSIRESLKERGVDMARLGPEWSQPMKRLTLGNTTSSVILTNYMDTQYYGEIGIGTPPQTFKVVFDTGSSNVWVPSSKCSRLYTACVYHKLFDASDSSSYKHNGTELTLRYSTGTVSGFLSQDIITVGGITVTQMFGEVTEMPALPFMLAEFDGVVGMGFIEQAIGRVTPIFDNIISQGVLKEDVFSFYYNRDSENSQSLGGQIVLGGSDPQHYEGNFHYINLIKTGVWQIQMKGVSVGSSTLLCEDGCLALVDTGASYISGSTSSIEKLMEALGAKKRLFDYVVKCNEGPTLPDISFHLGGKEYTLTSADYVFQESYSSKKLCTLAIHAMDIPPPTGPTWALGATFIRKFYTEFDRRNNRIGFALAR
Non-standard residues stand in square brackets, D forms with d. Residues, ends and D or L forms follow the SMILES beside them. *: point of attachment. Sta = CC(C)C[C@H](N)[C@@H](O)CC(=O)O; X1 = c1ccc(CN2CCC(N*)CC2)cc1; Boc = CC(C)(C)OC(=O)*
Recorded pKi for the following compounds
Schema: pKi number; meaning minus log10 of the concentration expressed in molar units.

Use the examples below as a reference point.
Compound	pKi
CC(C)C[C@H](NC(=O)C[C@H](O)[C@H](CC(C)C)NC(=O)[C@H](Cc1ccccc1)NC(=O)[C@H](Cc1ccccc1)NC(=O)OC(C)(C)C)C(=O)N[C@@H](Cc1ccccc1)C(N)=O (Boc-FF[Sta]LF-NH2)	8.32
CC(C)C[C@@H](CNCc1ccccc1)NC(=O)C[C@H](O)[C@H](CC(C)C)NC(=O)[C@H](Cc1ccccc1)NC(=O)[C@H](Cc1ccccc1)NC(=O)OC(C)(C)C	10.59

Consider the record given below.
Under Renin (Homo sapiens, UniProt P00797): pKi value of CC(C)C[C@H](NC(=O)C[C@H](O)[C@H](CC(C)C)NC(=O)[C@H](Cc1c[nH]cn1)NC(=O)[C@H](Cc1ccccc1)NC(=O)OC(C)(C)C)C(=O)NC1CCN(Cc2ccccc2)CC1 (Boc-FH[Sta]L-X1) ?
10.19

Cited source: ChEMBL document CHEMBL1122857
